Test system: MCF7TDX (Tomudex resistant breast carcinoma cell line)
Type: cell-based, human
Conditions: MCF7TDX, 72 hr incubation; read-out: IC50 (concentration that inhibits cellular growth by 50%)
Experimental: IC50 values of various potential HCV ECTA compounds (5761-5768) were determined using CCD 18co (normal colon epithelial cells), Det551 (skin fibroblasts), MCF7TDX (Tomudex resistant breast carcinoma cell line), HepG2 and Hep3B (hepatocellular carcinoma cell lines). […] Cells were treated with compounds 5759, 5762 or 5763 for 15 hours. After removal of the compounds, the cells were washed, incubated for a total of 72 hours and IC50 values were determined. […]
Square brackets hold non-standard residues; d marks the D form. Peptide text beside a SMILES is read from it. * marks the point of attachment. NH(4-NH2-anthraquinon-1-yl) = Nc1ccc(N*)c2c1C(=O)c1ccccc1C2=O; Abu = CC[C@H](N)C(=O)O
Quantity Measured: IC50 (µM)
State just the number; it will be interpreted in µM.

So what's the measured IC50 for this one? CC[C@H](NC(=O)[C@@H]1CCCN1C(=O)[C@@H](NC(=O)[C@@H](NC(=O)[C@H](CCC(=O)O)NC(=O)[C@H](CC(=O)O)NC(C)=O)C(C)C)[C@@H](C)O)C(=O)N[C@@H](CO)C(=O)NCC(=O)NCC(=O)Nc1ccc(N)c2c1C(=O)c1ccccc1C2=O [Compound 5768] (Ac-DEVTP[Abu]SGG-{NH(4-NH2-anthraquinon-1-yl)})
14

---

Test system: MCF7TDX (Tomudex resistant breast carcinoma cell line)
Assay type: cell-based, human
Conditions: MCF7TDX, 72 hr incubation; read-out: IC50 (concentration that inhibits cellular growth by 50%)
Square brackets hold non-standard residues; d marks the D form. Peptide text beside a SMILES is read from it. * marks the point of attachment. NH(4-NH2-anthraquinon-1-yl) = Nc1ccc(N*)c2c1C(=O)c1ccccc1C2=O; Cha = N[C@@H](CC1CCCCC1)C(=O)O; Abu = CC[C@H](N)C(=O)O
Answer each item with its documented pIC50.
Bear in mind: pIC50 is minus log10 of a mol/L concentration; give just that figure.

So what's the measured pIC50 for this one? CC[C@H](NC(=O)[C@H](CC1CCCCC1)NC(=O)[C@H](CCC(=O)O)NC(=O)[C@H](Cc1ccccc1)NC(=O)[C@H](CCC(=O)O)NC(=O)[C@H](CC(=O)O)NC(C)=O)C(=O)N[C@@H](CO)C(=O)NCC(=O)NCC(=O)Nc1ccc(N)c2c1C(=O)c1ccccc1C2=O [Compound 5766] (Ac-DEFE[Cha][Abu]SGG-{NH(4-NH2-anthraquinon-1-yl)})
5.07

Follow-up entry: CC(=O)N[C@@H](CC(=O)O)C(=O)N[C@@H](CCC(=O)O)C(=O)N[C@H](C(=O)N[C@H](C(=O)N1CCC[C@H]1C(=O)N[C@@H](CS)C(=O)N[C@@H](CO)C(=O)NCC(=O)NCC(=O)Nc1ccc(N)c2c1C(=O)c1ccccc1C2=O)[C@@H](C)O)C(C)C [Compound 5763] (Ac-DEVTPCSGG-{NH(4-NH2-anthraquinon-1-yl)})
5.22

Follow-up entry: CC[C@H](NC(=O)[C@H](CC(C)C)NC(=O)[C@@H](NC(=O)[C@H](C)NC(=O)[C@H](CCC(=O)O)NC(=O)[C@H](CC(=O)O)NC(C)=O)C(C)C)C(=O)N[C@@H](CO)C(=O)NCC(=O)NCC(=O)Nc1ccc(N)c2c1C(=O)c1ccccc1C2=O [Compound 5767] (Ac-DEAVL[Abu]SGG-{NH(4-NH2-anthraquinon-1-yl)})
5.10
